- system-tested: T1, human Claudin 18.2 protein (human)
- T1 construct: Expressed on transfected cells (CHO-hCLDN18.2, HEK293-hCLDN18.2, 3T3-hCLDN18.2) from pCMV3-hCLDN18.2; also called human CLDN18.2; hCLDN18.2
- T1 sequence (chain, as listed by the source limits assumed): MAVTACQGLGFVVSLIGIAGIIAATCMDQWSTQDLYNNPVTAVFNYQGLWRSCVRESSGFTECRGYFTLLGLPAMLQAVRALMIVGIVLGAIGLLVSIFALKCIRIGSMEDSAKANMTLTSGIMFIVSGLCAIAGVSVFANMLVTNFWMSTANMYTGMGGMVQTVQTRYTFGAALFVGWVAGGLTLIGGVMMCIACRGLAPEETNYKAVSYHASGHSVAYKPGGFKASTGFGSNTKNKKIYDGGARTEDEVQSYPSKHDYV
- assay-protocol: FACS on cells expressing CLDN18.2 versus cells expressing CLDN18.1 (reference: binding to CLDN18.1)
What fold stronger binding to CLDN18.2 than to CLDN18.1 was measured for each of the following?

INSERT INTO assay_data (binder, result) VALUES
  ('15B10 mouse chimeric antibody (murine VH/VL on human IgG1 constant regions) (antibody, V domains shown, also called murine clone 15B10) VH: QVQLQQSGAELVRPGTSVKVSCKASGYAFSNYLIDWVKQRPGQGLEWIGVIHPGSGTNYNENFKGKATLTADKSSSTAYMQLSSLTSDDSAVYFCSRRWYGNSLIYWGQGTLVTVSA VL: DIVMTQSPSSLTVTAGEKVTMTCKSSQSLLNSGNQRNYLTWYQQKPGQPPKLLIYWASTRESGVPDRFTGSGSGTDFTLTISSVQAEDLAVYYCQNDYFYPFTFGSGTKLEIK', '≥ 1000 times'),
  ('47D10 mouse chimeric antibody (murine VH/VL on human IgG1 constant regions) (antibody, V domains shown, also called murine clone 47D10; mouse 47D10 chimeric control antibody) VH: QVMLVESGGGLVKPGGSLKLSCAASGFAFSSSAMSWIRQTPEKRLEWVATMTVGYIYTYYLDTVKGRFIISRDNANNTLYLQMSSLRSEDSAMYYCARQGYGNAMDYWGQGTSVTVSS VL: DIVMTQSPSSLTVTAGEKVTMSCKSSQSLLNSGNQKNYLTWYQQKPGQPPKLLIYWASTRESGVPYRFTGSGSGTDFTLTISSVEAEDLAVYYCQNNYIYPLTFGAGTKLELK', '≥ 1000 times');

Given 29G4 mouse chimeric antibody (murine VH/VL on human IgG1 constant regions) (antibody, V domains shown, also called murine clone 29G4) VH: QVQLKESGPGLVAPSQTLSITCTVSGFSLTNYGVQWVRQPPGKGLEWLGVIWAGGNTNYNSALLSRLSISKDTSKSQVFLKMNSLKTDDTAMYYCARGGYGNSCDYWGQGTLVTVSA VL: DIVMTQSPSSLTVTAGEKVTMNCKSSQSLLNSGNQKNYLAWYRQKPGQPPKLLIYWASTRGSGVPDRFTGSGSGTDFALTISSVQAEDLAVYYCQNDYFYPLTFGAGTKLDLK , state its recorded fold stronger binding to CLDN18.2 than to CLDN18.1.
≥ 1000 times
